- System: Mycobacterium tuberculosis
- Assay explanation: Cornell M. t heat shock assay; note: in the data most compounds retested in dose-response had high values
- Type: functional, organism-based
- Parameters: dose or concentration left out as unconfirmed
Among all 69,000 compounds or so, about 950 (1.4%) showed an effect of 50% or more. Shown is part of a subset that was picked to be rich in strong results.
We begin with a simple list: items and their reported Percent Effect.

Compound: CCOC[C@]12COC[C@H]1CN(Cc1ccc3c(c1)OCO3)C2.O=C(O)C(F)(F)F
Percent Effect: 12.44%
--
Compound: CC(c1ccc(F)c(F)c1)N(C)CCS(=O)(=O)CCC(N)=O (centres undefined)
Percent Effect: 53.46%
--
Compound: Cc1cnn(CCNCc2csc(-c3ccc(F)cc3)n2)c1
Percent Effect: 22.16%
--
Compound: CCCn1cc(-c2ccnc(NC3CCc4ccccc43)n2)c(C)n1 (centres undefined)
Percent Effect: 18.89%
--
Compound: Cl.Cn1cc([C@@H]2CN(S(=O)(=O)c3ccccc3F)C[C@H]2N)c2ccncc21
Percent Effect: -1.741%
--
Compound: CC(C)CCC1=NC2(CCN(C(=O)N3CCN(C)CC3)CC2)C(=O)N1
Percent Effect: 15.27%
--
Compound: CN(C)c1ncc(-c2cc(C(=O)NCCO)n(CC3CC3)c2)cn1.O=C(O)C(F)(F)F
Percent Effect: -4.821%
--
Compound: Cc1nc(-c2ccccc2)cc2nn(CC(N)=O)c(=O)n12
Percent Effect: 80.99%
--
Compound: CC(C)NC(=O)N1CCC2(CCC(=O)N2CCN2CCCC2)CC1.O=C(O)C(F)(F)F
Percent Effect: -7.519%
--
Compound: COc1ccc(CN(C)[C@@H]2COC[C@H]2c2ccc(F)cc2)cc1.O=C(O)CC(O)(CC(=O)O)C(=O)O
Percent Effect: -8.721%
--
Compound: Cc1cc(N2CCOCC2)ccc1NC(C)c1nc(C(C)(C)C)no1 (centres undefined)
Percent Effect: 72.1%
--
Compound: CC(C)c1cc(C(=O)NCC2CCCN(C(C)C)C2)n(C)n1.Cl (centres undefined)
Percent Effect: -0.8268%
--
Compound: COc1nccnc1N1C[C@@H]2CC[C@H](C1)N(CC=C(C)C)C2=O
Percent Effect: -19.62%
--
Compound: CCOC(=O)N1CCC2(CC1)N=C(CCC(C)C)NC2=O
Percent Effect: 12.74%

====

- System: Mycobacterium tuberculosis
- Assay explanation: Cornell M. t heat shock assay; note: in the data most compounds retested in dose-response had high values
- Format: functional, organism-based
- Design: dose or concentration left out as unconfirmed
The campaign covered roughly 69,000 compounds. About 950 (1.4%) showed an effect of 50% or more. What follows is part of a selection rich in strong results, with near analogues and random picks from the rest.
Property measured: Percent Effect

Compound: Cn1ncc2c1NC(=O)CC2c1cc(Cl)ccc1F (stereo not drawn)
Test value: -20.48%
--
Compound: CNS(=O)(=O)CCNc1cc(C)nc2cc(C)nn12
Test value: 10.96%
--
Compound: COc1ccnc(CN2CCCC(CCc3ccccc3)C2)c1OC (stereo not drawn)
Test value: 22.56%

====

- System: Mycobacterium tuberculosis
- Assay explanation: Cornell M. t heat shock assay; note: in the data most compounds retested in dose-response had high values
- Format: functional, organism-based
- Parameters: dose or concentration left out as unconfirmed
Out of some 69,000 compounds screened, about 950 (1.4%) showed an effect of 50% or more. The entries come from a sample that favours strong results as a whole.
Property measured: Percent Effect

Compound: CNC(=O)CN1CCCC12CCN(C(=O)c1ccc(F)cc1)CC2.O=C(O)C(F)(F)F
Property measured: Percent Effect
Test value: -33.92%

Compound: CCc1cnc(N2CCC3(CC2)CN(c2cccnc2)C(=O)CO3)nc1.O=C(O)C(F)(F)F
Property measured: Percent Effect
Test value: -15.98%

Compound: CN1[C@H]2CC[C@@H]1CN(C(=O)c1ccc(-c3ccccc3)[nH]1)CC2
Property measured: Percent Effect
Test value: 5.823%

Compound: CN(C)CCNCCC(Cc1ccccc1)C1CCOC(C)(C)C1.O=C(O)C(=O)O (stereo not drawn)
Property measured: Percent Effect
Test value: -22.2%

Compound: COc1ccc(Cl)cc1CS(=O)(=O)Cc1nc(C)no1
Property measured: Percent Effect
Test value: 62.62%

Compound: Cl.NC(=O)C1CN(c2ccc(F)cc2)CCN1 (stereo not drawn)
Property measured: Percent Effect
Test value: 7.399%

Compound: Cn1cnc2c1CCN(CCCc1ccccc1)C2
Property measured: Percent Effect
Test value: 8.155%

Compound: Cn1ccnc1-c1ccc(NCC2COc3ccccc3O2)nn1 (stereo not drawn)
Property measured: Percent Effect
Test value: 32.53%

Compound: O=C(O)C(F)(F)F.O=C(c1ccc[nH]1)N1CCc2c(COCC3CC3)cncc2C1
Property measured: Percent Effect
Test value: -0.4009%

Compound: CCCc1cc(=O)[nH]c(-n2nc(C3CC3)cc2N)n1
Property measured: Percent Effect
Test value: 101.7%

Compound: COCCN1C[C@@H]2[C@@H](OC)CCN(C(=O)Cc3ccsc3)[C@@H]2C1.O=C(O)C(F)(F)F
Property measured: Percent Effect
Test value: -5.727%

Compound: Cc1cc(C(=O)Nc2cc(C3CC3)n[nH]2)c2c(C)nn(C)c2n1
Property measured: Percent Effect
Test value: 28.31%

Compound: CCN1CCOCC2(CCCN(C(=O)c3conc3C)C2)C1.O=C(O)C(F)(F)F (stereo not drawn)
Property measured: Percent Effect
Test value: -3.777%

Compound: CCc1cccc2c(CC(=O)N(C)CCN(C)C)c(C)[nH]c12.O=C(O)CC(O)(CC(=O)O)C(=O)O
Property measured: Percent Effect
Test value: 1.394%

Compound: Cc1nc(Cc2ccc(F)cc2)cc(C2COCCN2)n1.Cl (stereo not drawn)
Property measured: Percent Effect
Test value: 12.05%

Compound: Clc1ccccc1C1(c2ccnc(-c3ncccn3)n2)CCNCC1
Property measured: Percent Effect
Test value: -0.2715%

Compound: CN1CCCCC1c1ncc2c(n1)CCN(CCCc1ccccc1)C2 (stereo not drawn)
Property measured: Percent Effect
Test value: 101.2%

Compound: Cc1cc(=O)[nH]c(-n2nc(C3CC3)cc2N)n1
Property measured: Percent Effect
Test value: 101%

Compound: CCCc1cc(=O)[nH]c(-c2cccc(CN3CCN4CCCC4C3)c2)n1 (stereo not drawn)
Property measured: Percent Effect
Test value: 0.7345%

Compound: Cc1cc(N2CCN(Cc3cn(C)nc3C)CC2)cc(C2CCNC2)n1.Cl (stereo not drawn)
Property measured: Percent Effect
Test value: -5.922%

Compound: Cc1nc2[nH]cnc(NCCN3CCCC3)c-2n1
Property measured: Percent Effect
Test value: 57.49%

Compound: CCN(Cc1cccnc1)CC1CCCO1 (stereo not drawn)
Property measured: Percent Effect
Test value: -42.47%

Compound: CCC(C)(N)c1nc(C(C)C)cc(=O)[nH]1.Cl (stereo not drawn)
Property measured: Percent Effect
Test value: 7.893%

Compound: COc1ccc(CN2CCc3nc(C4CCCCN4C)ncc3C2)cc1 (stereo not drawn)
Property measured: Percent Effect
Test value: 25.26%

Compound: CCOC(=O)CSc1nnc([C@@H](N)CC(C)C)o1.Cl
Property measured: Percent Effect
Test value: -13.08%

Compound: CCCc1cc(=O)[nH]c(-c2cccc(CN3CCCCCC3)c2)n1
Property measured: Percent Effect
Test value: -11.64%

Compound: Cc1nc(CN2CCC3(CC2)CC(c2cccnc2)C(=O)N3C)cs1.O=C(O)C(F)(F)F.O=C(O)C(F)(F)F (stereo not drawn)
Property measured: Percent Effect
Test value: 40.95%

Compound: O=C(Cc1ccccn1)N1CCN2C[C@H](Oc3cccc(F)c3)C[C@H]2C1.O=C(O)C(F)(F)F.O=C(O)C(F)(F)F
Property measured: Percent Effect
Test value: -12.23%

Compound: Cc1cnccc1-c1cnn(CCNC(=O)C(C)(C)C)c1C1CC1.Cl
Property measured: Percent Effect
Test value: -19.45%

Compound: Cn1ccnc1-c1ccc(NC[C@H]2CCc3ccccc3O2)nn1
Property measured: Percent Effect
Test value: 50.1%

Compound: Cl.O=C(c1cccc(F)c1)N1CCCC1c1ncc2c(n1)CCNC2 (stereo not drawn)
Property measured: Percent Effect
Test value: -29.7%

Compound: CC(Cn1cncc1-c1cnn(Cc2ccccc2)c1)N1CCCCC1.Cl (stereo not drawn)
Property measured: Percent Effect
Test value: -9.415%

Compound: CCN(Cc1ccc2cccc(O)c2n1)CC1CCCO1 (stereo not drawn)
Property measured: Percent Effect
Test value: 84.2%

====

- System: Mycobacterium tuberculosis
- Assay explanation: Cornell M. t heat shock assay; note: in the data most compounds retested in dose-response had high values
- Assay type: functional, organism-based
- Parameters: dose or concentration left out as unconfirmed
About 950 (1.4%) of roughly 69,000 compounds showed an effect of 50% or more. The entries come from a sample that favours strong results as a whole.
Property measured: Percent Effect (%)

Compound: Cc1nc(CO[C@@H]2CN(Cc3ccccn3)[C@@H]3COC[C@@H]32)cs1
Target system: Mycobacterium tuberculosis
Property measured: Percent Effect
Test value: -33.39

Compound: CN(C)Cc1cncc2c1CCN(Cc1ccoc1)C2.Cl.Cl.Cl
Target system: Mycobacterium tuberculosis
Property measured: Percent Effect
Test value: -10.16

Compound: O=C(NC1CC1)c1cnc(-c2noc3cc(N4CCCCC4)ccc23)s1
Target system: Mycobacterium tuberculosis
Property measured: Percent Effect
Test value: -8.735

Compound: O=C(c1cnc(-c2noc3cc(N4CCCC4)ccc23)s1)N1CCCC1
Target system: Mycobacterium tuberculosis
Property measured: Percent Effect
Test value: -6.808

Compound: Cn1cc(N2CC3(CCN(Cc4ccsc4)CC3)OCC2=O)cn1.O=C(O)C(F)(F)F
Target system: Mycobacterium tuberculosis
Property measured: Percent Effect
Test value: -18.04

Compound: CCc1onc(C)c1C(=O)N1CCN(c2ncc3c(n2)CCOC3)CC1.Cl
Target system: Mycobacterium tuberculosis
Property measured: Percent Effect
Test value: -10.25

Compound: Cc1ccc(N2CCC3(CCN(C(=O)c4ccoc4)CC3)CC2)nn1.O=C(O)C(F)(F)F
Target system: Mycobacterium tuberculosis
Property measured: Percent Effect
Test value: -13.67

Compound: Cc1ccc(CN2Cc3nnn(C)c3C(COCc3ccccn3)C2)s1.O=C(O)C(F)(F)F.O=C(O)C(F)(F)F (stereo not given)
Target system: Mycobacterium tuberculosis
Property measured: Percent Effect
Test value: -10.17

Compound: CC(=O)N(C)[C@H]1CC[C@]2(CC1)CNC(=O)c1cc(C)ccc1O2
Target system: Mycobacterium tuberculosis
Property measured: Percent Effect
Test value: 5.316

Compound: Cn1cc(CNC2CCc3c(ccc(=O)n3Cc3cccnc3)C2)cn1.O=C(O)C(F)(F)F.O=C(O)C(F)(F)F (stereo not given)
Target system: Mycobacterium tuberculosis
Property measured: Percent Effect
Test value: 12.8

Compound: CCc1cc(N(C)Cc2ccno2)n2nc(C)c(C)c2n1
Target system: Mycobacterium tuberculosis
Property measured: Percent Effect
Test value: 27.53

Compound: Cc1cc(NC(C)c2csc(C)n2)n2nc(C)c(C)c2n1 (stereo not given)
Target system: Mycobacterium tuberculosis
Property measured: Percent Effect
Test value: 26.88

Compound: Cc1csc(CN(C)c2cc(C)nc3c(C)c(C)nn23)n1
Target system: Mycobacterium tuberculosis
Property measured: Percent Effect
Test value: 96.63

Compound: CC[C@@H]1N(Cc2ccc(C)o2)CCC[C@]12CCC(=O)N2CCOC.O=C(O)C(F)(F)F
Target system: Mycobacterium tuberculosis
Property measured: Percent Effect
Test value: -28.97

Compound: COCCN1Cc2nccn2CC(COCc2csc(C)n2)C1.O=C(O)C(F)(F)F.O=C(O)C(F)(F)F (stereo not given)
Target system: Mycobacterium tuberculosis
Property measured: Percent Effect
Test value: 2.482

Compound: CCc1nnc(CN(C)c2cc(C)nc3c(C)c(C)nn23)o1
Target system: Mycobacterium tuberculosis
Property measured: Percent Effect
Test value: -40

Compound: CCc1cc(N(C)Cc2ccncn2)n2nc(C)c(C)c2n1
Target system: Mycobacterium tuberculosis
Property measured: Percent Effect
Test value: 89.97

Compound: CCc1cc(N(C)Cc2ccnc(C)c2)n2nc(C)c(C)c2n1
Target system: Mycobacterium tuberculosis
Property measured: Percent Effect
Test value: 28.31

Compound: CC(C)c1cc(N(C)Cc2noc(C3CCCC3)n2)n2nccc2n1
Target system: Mycobacterium tuberculosis
Property measured: Percent Effect
Test value: 67.06

Compound: CC1CCCN(c2ncc(-c3ccccc3F)c(-c3nccn3C)n2)C1 (stereo not given)
Target system: Mycobacterium tuberculosis
Property measured: Percent Effect
Test value: 84.22

Compound: O=S(=O)(C1CC1)N1CCc2ncnc(-c3ccsc3)c2CC1
Target system: Mycobacterium tuberculosis
Property measured: Percent Effect
Test value: -2.171

Compound: Cc1cc2c(c(-c3c[nH]c(C)n3)c1)OC(CN)C2 (stereo not given)
Target system: Mycobacterium tuberculosis
Property measured: Percent Effect
Test value: 1.503

Compound: CC(C)c1cc(N(C)Cc2cc(C3CC3)on2)n2nccc2n1
Target system: Mycobacterium tuberculosis
Property measured: Percent Effect
Test value: 41.46

Compound: Cc1cc(N(C)Cc2noc(C)n2)n2nc(C)c(C)c2n1
Target system: Mycobacterium tuberculosis
Property measured: Percent Effect
Test value: 0.3178

Compound: CCc1nc(C)c(CN2CCOC(Cc3cccc4ccccc34)C2)[nH]1 (stereo not given)
Target system: Mycobacterium tuberculosis
Property measured: Percent Effect
Test value: 8.588

The reported measurements were obtained from ChEMBL document CHEMBL3988442.
